- Test system: U251 CNS
Response enum: active, inactive

{"Molecule": "CCC(=C/[C@H](C)C/C=C/C(C)=C/[C@@H](C)C(=O)[C@@H](C)[C@H](O)[C@@H](C)CC)/C=C/[C@@H]1OC(=O)C=C[C@@H]1C", "Assigned class": "active"}
{"Molecule": "Fc1ccc(-c2nnc3sc(-c4cc(Cl)cc(Cl)c4)nn23)cc1Cl", "Assigned class": "inactive"}
{"Molecule": "COc1cc2c(cc1OCCCCCN1CCN(c3cc(=O)oc4ccccc34)CC1)N=C[C@@H]1CCCN1C2=O", "Assigned class": "active"}
{"Molecule": "O=c1[nH]c2ccc(N=Cc3c(O)[nH]c4ccccc34)cc2[nH]1", "Assigned class": "inactive"}
{"Molecule": "Cn1cc(C2=C(c3c4n(c5ccccc35)CCN(C(N)=S)C4)C(=O)NC2=O)c2ccccc21", "Assigned class": "inactive"}
{"Molecule": "COc1cc(OC)cc(C2C(C#N)=C(N)Oc3c2ccc2ccc(O)cc32)c1 (centres undefined)", "Assigned class": "active"}
{"Molecule": "Cc1cc(Nc2ncc(F)c(N[C@H]3[C@@H](C(N)=O)[C@@H]4C=C[C@H]3C4)n2)ccc1N1CCN(C)CC1", "Assigned class": "active"}
{"Molecule": "[N-]=[N+]=NCCCn1c2c(c3ccccc3c1=O)C(=O)c1cc(Br)ccc1-2", "Assigned class": "inactive"}

Consider now this further molecule.
Query: Each molecule tested received a call. Report the one for Cc1nc2ccccc2c(/C=C/c2ccc(Cl)cc2)c1C(=O)/C=C/c1ccc(F)cc1 .
Response: inactive

====

- System: HOP-62 NSCLC
- Protocol details: NCI tumour cell line growth inhibition, 48 h
TGI overview
// return numeric value only (unit: µM, not printed)

The following compounds have reported results that may help.
{"Compound": "CC(=O)NC1=C(C)C(=O)c2c(nc3n2CCC3OC(=O)c2ccccc2)C1=O (configuration not stated)", "TGI, µM": 5.56}
{"Compound": "CC(=O)Nc1ccc(NNc2cc(=O)n(C)c(=O)[nH]2)cc1", "TGI, µM": 30.4}
{"Compound": "O=[N+]([O-])c1cccc(-c2ncnc(-c3cccc([N+](=O)[O-])c3)n2)c1", "TGI, µM": 37.5}
{"Compound": "CC(C)(C)OC(=O)NCC(c1c[nH]c2ccc(Br)cc12)c1c[nH]c2ccc(Br)cc12", "TGI, µM": 27.3}
{"Compound": "Cc1cc(C)nc(NS(=O)(=O)c2ccc(NC(=O)c3ccc(Cl)c4c(Nc5ccc(S(=O)(=O)Nc6cc(C)on6)cc5)c5ccccc5nc34)cc2)n1", "TGI, µM": 30.6}
{"Compound": "COc1cc(OC)cc(C2C(C#N)=C(N)Oc3c2ccc2ccc(O)cc32)c1 (configuration not stated)", "TGI, µM": 5.75}
{"Compound": "O=c1oc2ccc(Cl)cc2cc1C1=CSC2=NCCN12", "TGI, µM": 34.3}
{"Compound": "CSc1nc(=Nc2ccccc2)sn1-c1ccccc1", "TGI, µM": 31.3}

Let us examine a further case.
Query: Answer with the recorded TGI of COc1cc(NC(=O)c2ccc(C(F)(F)F)nc2Nc2cc(Cl)ccc2C)cc(OC)c1OC only.
Response: 16.6

====

- Tested on: UACC-62 melanoma
- Protocol details: NCI tumour cell line growth inhibition, 48 h; in the data active = GI50 below about 0.43 µM; inactive = the rest
Response enum: true (1) = active, false (0) = inactive

Example cases with answers are listed next.
{"Compound": "Cc1cc(I)cc(CN(C)CCN2CCOCC2)c1O", "Assigned class": "false (0)"}
{"Compound": "COc1ccc(-c2c(C#N)c(N)nc3c2COc2ccc(F)cc2-3)cc1OC", "Assigned class": "false (0)"}
{"Compound": "CC(=O)OC1CCC(OC(C)=O)[C@H]2[C@@H]1[C@@H]1S[C@H]2c2ccccc21 (stereo partly drawn)", "Assigned class": "false (0)"}
{"Compound": "COc1cc(-c2nn(-c3ccc(NC(=O)NCCCNC(=O)c4ccccc4)cc3)cc2-c2ccncc2)ccc1Cl", "Assigned class": "false (0)"}

Consider now this further compound.
Query: Each compound tested received a call. Report the one for CC1SC(c2ccc(Cl)c(Cl)c2)N(NC(=O)C(O)c2ccccc2)C1=O (stereo not drawn) .
Response: false (0)

====

- Test system: SN12C renal
- Protocol details: NCI tumour cell line growth inhibition, 48 h
*1 amine or outer side, *2 acyl side, *3 side chain or, on linkers, in order; H or OH if unused. Where a SMILES comes first, the peptide text is derived from it. Bridges are numbered along the chain shown (N, C = ends). [ ]: non-standard residue; d: D form. The star is where a group is joined. Phe(3,5-F2) = N[C@@H](Cc1cc(F)cc(F)c1)C(=O)O; Pro(4R-Me) = C[C@H]1CN[C@H](C(=O)O)C1; aThr = C[C@H](O)[C@H](N)C(=O)O; Pip = O=C(O)[C@@H]1CCCCN1; X10 = Fc1cc(C2CC2)ccc1N*; Abu = CC[C@H](N)C(=O)O; CO = O=C([*:1])[*:2]
Measured parameter: TGI

{"Compound": "CCOc1ccc2nc3cc(N=Nc4ccc(N)nc4N)ccc3c(N)c2c1", "Tested target": "SN12C renal", "Experimental value": "6.38 µM"}
{"Compound": "N#C/C(=C\\c1cc(Br)c(O)c(Br)c1)c1ccccn1", "Tested target": "SN12C renal", "Experimental value": "> 100 µM"}
{"Compound": "Cc1nc2ccccc2c(=O)n1NC(=S)Nc1ccccc1", "Tested target": "SN12C renal", "Experimental value": "> 100 µM"}
{"Compound": "COc1ccc2c3c1O[C@H]1C(=O)C=CC4(n5[nH]c(=O)n(-c6ccccc6)c5=O)C(C2)N(C)CCC314 (stereo partly drawn)", "Tested target": "SN12C renal", "Experimental value": "> 100 µM"}
{"Compound": "O=C(c1ccccc1)c1nc2ccc(Cl)cc2c2c1Cc1ccccc1-2", "Tested target": "SN12C renal", "Experimental value": "> 100 µM"}

Query: # lookup: SN12C renal TGI, key = CN(C)CCNC(=O)c1cc([N+](=O)[O-])cn1C
Response: > 100 µM

Query: # lookup: SN12C renal TGI, key = CC[C@@H]1NC(=O)[C@@H]2CCCCN2C(=O)[C@@H]2CCCN2C(=O)[C@@H](NC(=O)[C@H](Cc2cc(F)cc(F)c2)NC(=O)Nc2ccc(C3CC3)cc2F)[C@H](C)OC(=O)[C@@H]2C[C@@H](C)CN2C1=O ({X10-CO}-[Phe(3,5-F2)][aThr]P[Pip][Abu][Pro(4R-Me)]; ester 2-C)
Response: > 33.8 µM

Query: # lookup: SN12C renal TGI, key = Cc1c2cnccc2c(C)c2c1c1ccccc1n2CC1CO1 (stereo not drawn)
Response: 1.31 µM

====

TGI overview
- Test system: HCC-2998 colon
- Protocol details: NCI tumour cell line growth inhibition, 48 h

The following molecules have reported results that may help.
{"Molecule": "N.N.NCCCCCCN.O=C([O-])CCl.O=C([O-])CCl.O=C([O-])CCl.O=C([O-])CCl.[Pt+4].[Pt+4]", "TGI": "> 50 µM"}
{"Molecule": "Cn1c(-c2c(N)n(Cc3ccc(C(F)(F)F)cc3)c3nc(C#N)c(C#N)nc23)nc2ccccc21", "TGI": "56.4 µM"}

Query: # lookup: HCC-2998 colon TGI, key = COc1cc(C(C)c2ccc3c(ccn3C)c2)cc(OC)c1OC (stereo not drawn)
Response: > 100 µM

====

- Test system: OVCAR-5 ovarian
- Protocol details: NCI tumour cell line growth inhibition, 48 h
Measured parameter: TGI

{"Compound": "COc1cnc2c(c1)C(=O)c1c-2n(CCCBr)c(=O)c2cc([N+](=O)[O-])ccc12", "Measured parameter": "TGI", "Experimental value": "10.2 µM"}

Query: # lookup: OVCAR-5 ovarian TGI, key = CCCCCCCCCCCC[C@H](O)[C@H]1CC[C@H]([C@H](O)CCCC[C@H](O)CCCCC[C@@H](O)CC2=C[C@H](C)OC2=O)O1
Response: 31.7 µM

Query: # lookup: OVCAR-5 ovarian TGI, key = Oc1ccc(CCl)c2cccnc12
Response: > 100 µM

Query: # lookup: OVCAR-5 ovarian TGI, key = COCOc1cc(OC)ccc1C/C=N/O
Response: > 100 µM

====

- System: K-562 leukemia
- Protocol details: NCI tumour cell line growth inhibition, 48 h; in the data active means GI50 below about 0.43 µM; inactive means the rest
*1 amine or outer side, *2 acyl side, *3 side chain or, on linkers, in order; H or OH if unused. Where a SMILES comes first, the peptide text is derived from it. Bridges are numbered along the chain shown (N, C = ends). [ ]: non-standard residue; d: D form. The star is where a group is joined. Phe(3,5-F2) = N[C@@H](Cc1cc(F)cc(F)c1)C(=O)O; Pro(4R-Me) = C[C@H]1CN[C@H](C(=O)O)C1; aThr = C[C@H](O)[C@H](N)C(=O)O; Pip = O=C(O)[C@@H]1CCCCN1; X10 = Fc1cc(C2CC2)ccc1N*; Abu = CC[C@H](N)C(=O)O; CO = O=C([*:1])[*:2]
Response enum: active, inactive

{"Compound": "Cn1c(-c2c(N)n(Cc3ccc(C(F)(F)F)cc3)c3nc(C#N)c(C#N)nc23)nc2ccccc21", "Assigned class": "inactive"}
{"Compound": "COc1cc(NC(=O)c2ccc(C(F)(F)F)nc2Nc2cc(Cl)ccc2C)cc(OC)c1OC", "Assigned class": "inactive"}
{"Compound": "COc1cc2c(cc1OCCCCCN1CCN(c3cc(=O)oc4ccccc34)CC1)N=C[C@@H]1CCCN1C2=O", "Assigned class": "active"}
{"Compound": "Cc1cc(Nc2ncc(F)c(N[C@H]3[C@@H](C(N)=O)[C@@H]4C=C[C@H]3C4)n2)ccc1N1CCN(C)CC1", "Assigned class": "active"}
{"Compound": "N.N.NCCCCCCN.O=C([O-])CCl.O=C([O-])CCl.O=C([O-])CCl.O=C([O-])CCl.[Pt+4].[Pt+4]", "Assigned class": "inactive"}
{"Compound": "COc1cnc2c(c1)C(=O)c1c-2n(CCCBr)c(=O)c2cc([N+](=O)[O-])ccc12", "Assigned class": "active"}

Query: Each compound tested received a call. Report the one for O=c1[nH]c2ccc(N=Cc3c(O)[nH]c4ccccc34)cc2[nH]1 .
Response: inactive

Query: Each compound tested received a call. Report the one for CCn1cc(C(=O)N/N=C/c2ccc(Br)cc2)c(=O)c2cc(F)c(N3CCNC(C)C3)c(F)c21 (configuration not stated) .
Response: inactive

Query: Each compound tested received a call. Report the one for CCCCCCCCCCCC[C@H](O)[C@H]1CC[C@H]([C@H](O)CCCC[C@H](O)CCCCC[C@@H](O)CC2=C[C@H](C)OC2=O)O1 .
Response: active

Query: Each compound tested received a call. Report the one for C[C@]12CC[C@H](OC3OC(O)C(O)C(O)C3O)C=C1CCC1C2CC[C@]2(C)[C@@H](c3ccc(=O)oc3)CC[C@]12O (some centres not stated) .
Response: active

Query: Each compound tested received a call. Report the one for COc1ccc2c(c1OC)CO[C@@H]2[C@H]1c2c(c(Br)c3c(c2OC)OCO3)CCN1C .
Response: inactive

Query: Each compound tested received a call. Report the one for CC[C@@H]1NC(=O)[C@@H]2CCCCN2C(=O)[C@@H]2CCCN2C(=O)[C@@H](NC(=O)[C@H](Cc2cc(F)cc(F)c2)NC(=O)Nc2ccc(C3CC3)cc2F)[C@H](C)OC(=O)[C@@H]2C[C@@H](C)CN2C1=O ({X10-CO}-[Phe(3,5-F2)][aThr]P[Pip][Abu][Pro(4R-Me)]; ester 2-C) .
Response: active

Query: Each compound tested received a call. Report the one for FC(F)(F)CNc1nccc(-c2cnn3ncccc23)n1 .
Response: inactive
